- tested target: Serine/threonine-protein kinase MRCK alpha (Homo sapiens)
- experimental setup: at 1 µM
quantity name: residual activity (%)

1. CCN(CC)CCCCN1c2ccccc2Oc2ccc(Cl)cc21 = 133
2. COc1cc2ncnc(Nc3ccc(O)c(Br)c3)c2cc1OC = 82
3. Cn1cc(/C=C2\C(=O)Nc3ccc(S(N)(=O)=O)cc32)c2ccccc21 = 103
4. Oc1n[nH]c2nnc(-c3c(-c4ccccc4)nn4ccccc34)cc12 = 94
5. CO[C@H]1[C@@H](OC)C[C@H](C)[C@@H](OC)C2=CC(=O)C=C(NC(=O)/C(C)=C/C=C/[C@H](OC)[C@@H](OC(N)=O)/C(C)=C/[C@@H]1C)C2=O = 114
